# test.target: Citron Rho-interacting kinase (Homo sapiens); further: in the data inactive means no Kd found up to 30 µM
# Sequence (O14578 whole entry): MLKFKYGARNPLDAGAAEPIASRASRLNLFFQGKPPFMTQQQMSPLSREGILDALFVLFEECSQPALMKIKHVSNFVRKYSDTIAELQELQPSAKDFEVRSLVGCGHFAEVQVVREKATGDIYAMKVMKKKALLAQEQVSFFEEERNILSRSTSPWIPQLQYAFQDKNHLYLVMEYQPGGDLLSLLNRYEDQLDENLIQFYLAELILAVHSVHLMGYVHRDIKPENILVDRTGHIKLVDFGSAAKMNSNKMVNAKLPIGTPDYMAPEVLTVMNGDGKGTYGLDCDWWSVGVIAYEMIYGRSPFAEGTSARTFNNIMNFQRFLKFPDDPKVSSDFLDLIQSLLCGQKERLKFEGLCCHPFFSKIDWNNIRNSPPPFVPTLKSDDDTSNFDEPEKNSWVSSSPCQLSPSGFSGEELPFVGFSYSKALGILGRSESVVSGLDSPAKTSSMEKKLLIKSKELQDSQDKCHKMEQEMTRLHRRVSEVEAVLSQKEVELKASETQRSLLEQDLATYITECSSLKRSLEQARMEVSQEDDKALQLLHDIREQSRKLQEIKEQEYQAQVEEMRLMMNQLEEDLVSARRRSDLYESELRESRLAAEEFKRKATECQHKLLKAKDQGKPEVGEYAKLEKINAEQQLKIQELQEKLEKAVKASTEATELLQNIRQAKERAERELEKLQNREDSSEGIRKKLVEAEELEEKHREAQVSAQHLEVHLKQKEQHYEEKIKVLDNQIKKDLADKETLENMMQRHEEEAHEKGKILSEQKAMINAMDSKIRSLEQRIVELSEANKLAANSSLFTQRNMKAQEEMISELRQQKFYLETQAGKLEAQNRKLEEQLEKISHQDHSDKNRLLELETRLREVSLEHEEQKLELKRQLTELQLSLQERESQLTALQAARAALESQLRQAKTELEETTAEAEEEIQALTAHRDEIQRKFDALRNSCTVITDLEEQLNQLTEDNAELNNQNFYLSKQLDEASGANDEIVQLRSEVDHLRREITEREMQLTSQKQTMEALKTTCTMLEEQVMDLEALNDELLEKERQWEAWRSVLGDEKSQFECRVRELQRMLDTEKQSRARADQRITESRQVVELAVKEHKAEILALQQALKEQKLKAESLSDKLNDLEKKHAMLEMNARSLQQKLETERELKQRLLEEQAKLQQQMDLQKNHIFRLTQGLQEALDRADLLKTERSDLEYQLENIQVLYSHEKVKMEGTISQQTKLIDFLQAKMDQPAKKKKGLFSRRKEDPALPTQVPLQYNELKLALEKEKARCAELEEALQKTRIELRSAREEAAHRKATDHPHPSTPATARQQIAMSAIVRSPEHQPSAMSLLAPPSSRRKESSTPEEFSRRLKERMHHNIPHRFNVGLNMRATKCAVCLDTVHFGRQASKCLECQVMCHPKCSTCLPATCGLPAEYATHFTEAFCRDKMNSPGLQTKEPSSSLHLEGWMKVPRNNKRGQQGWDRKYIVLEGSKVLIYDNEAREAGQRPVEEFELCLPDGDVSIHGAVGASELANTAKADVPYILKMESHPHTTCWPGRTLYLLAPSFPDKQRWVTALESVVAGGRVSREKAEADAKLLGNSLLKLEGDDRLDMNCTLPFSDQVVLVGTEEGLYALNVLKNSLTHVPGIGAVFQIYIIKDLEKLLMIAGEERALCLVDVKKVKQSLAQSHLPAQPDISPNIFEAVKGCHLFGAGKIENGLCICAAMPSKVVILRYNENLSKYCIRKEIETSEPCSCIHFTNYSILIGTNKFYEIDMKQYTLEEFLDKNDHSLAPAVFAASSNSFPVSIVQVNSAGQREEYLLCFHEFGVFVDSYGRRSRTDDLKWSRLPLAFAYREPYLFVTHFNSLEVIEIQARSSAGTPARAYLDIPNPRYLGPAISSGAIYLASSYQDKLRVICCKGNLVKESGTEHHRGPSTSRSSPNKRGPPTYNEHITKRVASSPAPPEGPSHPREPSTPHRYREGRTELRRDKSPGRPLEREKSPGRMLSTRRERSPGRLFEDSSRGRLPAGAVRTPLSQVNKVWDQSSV
Calls of active or inactive are those of the source.
Write down one outcome, taken from y = active, n = inactive

# input GET /call?item= C[C@H]1CNCCCN1S(=O)(=O)c1cccc2cncc(F)c12 returns the recorded outcome of this test.
# output n

# input Also NC(=O)Nc1cc(-c2cccc(F)c2)sc1C(=O)N[C@H]1CCCNC1 ?
# output n

# input Also CCn1cc(-c2ccnc3[nH]c(-c4cccc(CN(C)C)c4)cc23)c(-c2ccc(NC(=O)N(C)C)cc2)n1 ?
# output y

# input Also O=C1NC(=O)[C@@H](c2cn3c4c(cccc24)CCC3)[C@@H]1c1c[nH]c2ccccc12 [TIVANTINIB] ?
# output n
